Subject of test: UniProtKB P25090
Protocol summary: Compound-induced calcium activity on FLIPR Tetra in CHO-Gα16 cells stably expressing FPRL1
Reported conditions: tested 0.61 to 10,000 nM, read-out: FPRL-1 Ga16-CHO EC50
Overview of recorded EC50 for various molecules
Record the value in nM, omitting the unit from your answer.

Use these answered entries as a reference point.
Which EC50 value belongs to CC(C)c1cccc2c1CCC(C(=O)Nc1ccc(Br)cc1)=C2C(=O)O ?
756

Quick one: O=C(O)C1=C(C(=O)Nc2ccc(Br)cc2)CCc2ccc(Cl)cc21
777

Quick one: O=C(Nc1ccc(Br)cc1)c1ccc2ccccc2c1C(=O)O
1300

Quick one: Cc1ccc(C)c2c1CCC(C(=O)Nc1ccc(Br)cc1)=C2C(=O)O
198

Quick one: O=C(O)C1=C(C(=O)Nc2ccc(Br)cc2)CCc2c1cccc2-c1ccccc1
566

Quick one: O=C(O)C1=C(C(=O)Nc2ccc(Br)cc2)CCc2ccccc21
383

Quick one: CC(C)(C)c1ccc2c(c1)C(C(=O)O)=C(C(=O)Nc1ccc(Br)cc1)CC2
1320

Quick one: O=C(O)c1cc2ccccc2cc1C(=O)Nc1ccc(Br)cc1
5930

Turning now to a further record.
Which EC50 value belongs to CCc1cc(C(=O)Nc2ccc(Br)cc2)c(C(=O)O)c2ccccc12 ?
165

----------
Overview of recorded Emax for various compounds
Subject of test: FPRL-1 (Homo sapiens, UniProt P25090)
Construct: expressed in transfected cells
Sequence (P25090 1-351): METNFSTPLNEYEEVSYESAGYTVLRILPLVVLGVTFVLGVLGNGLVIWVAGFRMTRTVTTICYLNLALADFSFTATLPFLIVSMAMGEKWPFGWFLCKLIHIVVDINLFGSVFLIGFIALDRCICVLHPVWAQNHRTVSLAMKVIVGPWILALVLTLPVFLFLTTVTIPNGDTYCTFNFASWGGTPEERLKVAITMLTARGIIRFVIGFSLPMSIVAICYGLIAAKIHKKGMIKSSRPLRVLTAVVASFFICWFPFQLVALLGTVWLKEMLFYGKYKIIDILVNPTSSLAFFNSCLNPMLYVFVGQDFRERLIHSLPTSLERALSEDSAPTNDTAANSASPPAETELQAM
Protocol summary: Compound-induced calcium activity on FLIPR Tetra in CHO-Gα16 cells stably expressing FPRL1
Format: cell-based
Reported conditions: efficacy, read-out: FPRL-1 Ga16-CHO (eff %)
Record the value in %, omitting the unit from your answer.

Which Emax value belongs to Cc1cc(C)c2c(c1)C(C(=O)O)=C(C(=O)Nc1ccc(Br)cc1)CC2 [Compound 7] ?
95

Quick one: O=C(Nc1ccc(Br)cc1)c1ccc2ccccc2c1C(=O)O [Compound 11]
100

Quick one: Cc1ccc(C)c2c1CCC(C(=O)Nc1ccc(Br)cc1)=C2C(=O)O [Compound 8]
93

Quick one: O=C(O)C1=C(C(=O)Nc2ccc(Br)cc2)CCc2ccc(Cl)cc21 [Compound 4]
81

Quick one: O=C(O)C1=C(C(=O)Nc2ccc(Br)cc2)CCc2ccccc21 [Compound 6]
90

Quick one: CC1(C)CC(C(=O)Nc2ccc(Br)cc2)=C(C(=O)O)c2ccccc21 [Compound 3]
95

Quick one: O=C(O)c1cc2ccccc2cc1C(=O)Nc1ccc(Br)cc1 [Compound 9]
92

Quick one: CC(C)c1cccc2c1CCC(C(=O)Nc1ccc(Br)cc1)=C2C(=O)O [Compound 1]
80

***
Which Emax value belongs to CCc1cc(C(=O)Nc2ccc(Br)cc2)c(C(=O)O)c2ccccc12 [Compound 12] ?
95

Quick one: O=C(O)C1=C(C(=O)Nc2ccc(Br)cc2)CCc2c1cccc2-c1ccccc1 [Compound 5]
100

Quick one: CC1(C)CCC(C)(C)c2cc(C(=O)Nc3ccc(Br)cc3)c(C(=O)O)cc21 [Compound 10]
58

Quick one: CC(C)(C)c1ccc2c(c1)C(C(=O)O)=C(C(=O)Nc1ccc(Br)cc1)CC2 [Compound 2]
86
